Test: Effect of food on plasma pharmacokinetics after single oral dose of SF2a/b (Example 2)
Format: in vivo, human
Details: both sexes, human, plasma, oral, 50 mg, Treatment H: single 50 mg (SF2a), fasted; read-out: AUC∞, Mean
Experimental Readout: AUC(0-inf) (ng·h/mL)
Only the number, expressed in ng·h/mL, is required.

-- ask Write down AUC(0-inf) measured for item COc1cc(NC(C(=O)c2c[nH]c3ccc(OC(F)(F)F)cc23)c2ccc(Cl)cc2OC)cc(S(C)(=O)=O)c1 (stereo not shown)
-- reply 21000

====

Assay: Plasma pharmacokinetics with loading dose and weekly or twice weekly maintenance dosing, fed (Example 5)
Type: in vivo, human
Settings: human, plasma, oral, Panel IV (150 mg BID Days 1-2, then 150 mg Q3D/Q4D; SF2a/b, fed), Day 2; read-out: Mean AUCτ (SD)
Experimental Readout: AUC (ng·h/mL)
Only the number, expressed in ng·h/mL, is required.

-- ask Write down AUC measured for item COc1cc(NC(C(=O)c2c[nH]c3ccc(OC(F)(F)F)cc23)c2ccc(Cl)cc2OC)cc(S(C)(=O)=O)c1 (stereo not shown)
-- reply 15800

Values were extracted from patent US20250281457A1.
